# EXPERIMENTAL_SYSTEM: D(4) dopamine receptor (Homo sapiens, UniProt P21917)
# Sequence (P21917 whole entry): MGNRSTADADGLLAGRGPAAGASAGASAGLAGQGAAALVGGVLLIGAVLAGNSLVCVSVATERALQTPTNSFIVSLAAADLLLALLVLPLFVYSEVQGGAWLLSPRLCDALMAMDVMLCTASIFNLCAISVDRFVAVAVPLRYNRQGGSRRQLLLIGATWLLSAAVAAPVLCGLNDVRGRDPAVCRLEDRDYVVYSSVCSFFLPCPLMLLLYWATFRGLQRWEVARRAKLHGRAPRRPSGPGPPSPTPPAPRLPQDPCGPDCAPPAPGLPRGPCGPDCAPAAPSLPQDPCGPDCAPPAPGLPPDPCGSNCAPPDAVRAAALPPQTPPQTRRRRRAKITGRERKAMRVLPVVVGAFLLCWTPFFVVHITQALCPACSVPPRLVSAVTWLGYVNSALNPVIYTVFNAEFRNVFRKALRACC
# PROCEDURE_TEXT: DRUGMATRIX: Dopamine D4.2 radioligand binding (ligand: [3H] Spiperone)
# Format: cell membranes, CHO-K1, Membrane
# RUN_PARAMETERS: Not Active = under 50% inhibition at 10 µM; read-out: Ki
RECORDED_METRIC: pKi
Interpret pKi as the negative base-10 log of the concentration measured in mol/L.

Report the value of pKi obtained on D(4) dopamine receptor (Homo sapiens, UniProt P21917) for Clc1ccc(COC(Cn2ccnc2)c2ccc(Cl)cc2Cl)cc1 (stereo unspecified) .
5.49

###

# EXPERIMENTAL_SYSTEM: 5-hydroxytryptamine receptor 1A (Rattus norvegicus); also: in other assays of this panel Not Active means under 50% inhibition at 10 µM
# Sequence (P19327 whole entry): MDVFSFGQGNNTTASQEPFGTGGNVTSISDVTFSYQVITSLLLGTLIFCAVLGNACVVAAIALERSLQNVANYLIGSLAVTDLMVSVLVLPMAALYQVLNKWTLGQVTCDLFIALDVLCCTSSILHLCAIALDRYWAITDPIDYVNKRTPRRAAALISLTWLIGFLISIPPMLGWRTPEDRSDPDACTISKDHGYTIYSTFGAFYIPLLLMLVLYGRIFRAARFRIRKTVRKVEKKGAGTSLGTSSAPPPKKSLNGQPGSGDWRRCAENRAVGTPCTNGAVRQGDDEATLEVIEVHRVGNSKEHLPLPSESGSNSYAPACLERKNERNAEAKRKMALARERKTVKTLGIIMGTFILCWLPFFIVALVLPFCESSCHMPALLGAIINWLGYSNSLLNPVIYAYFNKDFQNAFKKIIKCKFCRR
# Type: cell membranes, CHO-K1, Membrane
# RUN_PARAMETERS: cho-k1
RECORDED_METRIC: IC50

Worked examples, 5 compounds total:
COMPOUND	EXPERIMENTAL_SYSTEM	RECORDED_METRIC	ENDPOINT_VALUE
CCC1(C)CC(=O)NC1=O (stereo unspecified) [ETHOSUXIMIDE]	5-hydroxytryptamine receptor 1A (Rattus norvegicus)	IC50	Not Active
CN(C)[C@@H]1C(O)=C(C(N)=O)C(=O)[C@@]2(O)C(O)=C3C(=O)c4c(O)ccc(Cl)c4[C@@](C)(O)[C@H]3C[C@@H]12	5-hydroxytryptamine receptor 1A (Rattus norvegicus)	IC50	Not Active
O=c1cc(N2CCOCC2)oc2c(-c3ccccc3)cccc12	5-hydroxytryptamine receptor 1A (Rattus norvegicus)	IC50	Not Active
CCCN(CCC)S(=O)(=O)c1ccc(C(=O)O)cc1	5-hydroxytryptamine receptor 1A (Rattus norvegicus)	IC50	Not Active
C[C@@H]1O[C@@H](O[C@@H]2C=C3CC[C@@H]4[C@H](CC[C@]5(C)[C@@H](c6ccc(=O)oc6)CC[C@]45O)[C@@]3(C)CC2)[C@H](O)[C@H](O)[C@H]1O	5-hydroxytryptamine receptor 1A (Rattus norvegicus)	IC50	Not Active

Now for the compound whose IC50 we want.
Tell me its IC50 given CO[C@H]1/C=C/O[C@@]2(C)Oc3c(C)c(O)c4c(O)c(c(/C=N/N5CCN(C6CCCC6)CC5)c(O)c4c3C2=O)NC(=O)/C(C)=C\C=C\[C@H](C)[C@H](O)[C@@H](C)[C@@H](O)[C@@H](C)[C@H](OC(C)=O)[C@@H]1C as the entry.
Not Active

###

# PROCEDURE_TEXT: DRUGMATRIX: Calcium Channel Type L, Phenylalkylamine radioligand binding (ligand: [3H] (-)-Desmethoxyverapamil (D-888))
# Format: cell membranes, Rattus norvegicus, Wistar, Brain, Membrane
# RUN_PARAMETERS: Not Active = under 50% inhibition at 10 µM; read-out: IC50
RECORDED_METRIC: pIC50
Interpret pIC50 as the negative base-10 log of the concentration measured in mol/L.

Worked examples, 3 molecules total:
> print(dat)
                                   molecule  recorded.metric  endpoint.value
1       CN(C)CC[C@@H](c1ccc(Cl)cc1)c1ccccn1            pIC50            5.42
2         OC(CCCN1CCCCC1)(c1ccccc1)c1ccccc1            pIC50            5.35
3  Cc1cc2c(OCC(CNC(C)(C)C)OC(=O)c3ccccc3)cccc2[nH]1 (stereo unspecified)            pIC50            5.54

Tell me its pIC50 given CCCNCC(O)COc1ccccc1C(=O)CCc1ccccc1 (stereo unspecified) as the entry.
5.76

Tell me its pIC50 given COc1ccc(CCN(C)CCCC(C#N)(c2ccc(OC)c(OC)c2)C(C)C)cc1OC (stereo unspecified) as the entry.
7.33

Tell me its pIC50 given COc1cc(N)c(Cl)cc1C(=O)NC1CCN(CCCOc2ccc(F)cc2)CC1OC (stereo unspecified) [CISAPRIDE] as the entry.
6.28
